# testedSystem: T1, ComEA A108Y (Geobacillus stearothermophilus, UniProt A0A0K9HI54 60-207, A108Y)
# T1 sequence: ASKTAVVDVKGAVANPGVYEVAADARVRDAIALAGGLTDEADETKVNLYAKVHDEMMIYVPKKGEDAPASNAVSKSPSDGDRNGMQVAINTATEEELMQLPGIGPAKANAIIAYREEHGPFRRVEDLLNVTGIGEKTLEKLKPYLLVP
# method: fluorescence polarization; Hill coefficient 0.96 +/- 0.16; FP: 20 mM Tris-HCl pH 7.5, 200 mM KCl, 80 nM DNA, ~20 C (spin at 20 C; read temperature not stated); optical tweezers 23 +/- 1 C, buffer not given in material
# experimentalConditions: protein: recombinant; label: 3'-fluorescein (36-FAM) on strand 1; blunt
pKd: −log10 of the molar value.

| binder | pKd |
| --- | --- |
| 30 bp DNA duplex (dsDNA) DNA 1: GCACTGTGAATATCACTACAGCAACCTTGA DNA 2: TCAAGGTTGCTGTAGTGATATTCACAGTGC | 5.72 |
